Assay system: Adenosine receptors; A2a & A3 (Homo sapiens) (UniProt P0DMS8+P29274)
Assay text: Selectivity for human adenosine A3 receptor over human adenosine A2A receptor
Assay type: protein assay
Experimental readout: Ratio Ki

Check out these entries, answers already filled in.
CONc1nc(C#Cc2cccc(C(F)(F)F)c2)nc2c1ncn2[C@@H]1O[C@H](CO)[C@@H](O)[C@H]1O	360
CNC(=O)[C@H]1O[C@@H](n2cnc3c(NOC)nc(C#Cc4ccc(C(C)=O)cc4)nc32)[C@H](O)[C@@H]1O	4200

a = CONc1nc(C#Cc2ccncc2)nc2c1ncn2[C@@H]1O[C@H](CO)[C@@H](O)[C@H]1O
b = CCCCCc1ccc(C#Cc2nc(NOC)c3ncn([C@@H]4O[C@H](CO)[C@@H](O)[C@H]4O)c3n2)cc1
Would you kindly point out which of a and b has the smaller Ratio Ki figure? State the label of the item chosen.
b

A = Nc1nc(C#Cc2ccccc2)nc2c1ncn2[C@@H]1O[C@H](CO)[C@@H](O)[C@H]1O
B = CNC(=O)[C@H]1O[C@@H](n2cnc3c(NOC)nc(I)nc32)[C@H](O)[C@@H]1O
Task for the reader: decide whether A or B has the larger Ratio Ki. # reply format: chosen label
B
(B: 7100, A: 23)

A = CONc1nc(C#Cc2cccnc2)nc2c1ncn2[C@@H]1O[C@H](CO)[C@@H](O)[C@H]1O
B = CONc1nc(C#CCCCC#N)nc2c1ncn2[C@@H]1O[C@H](CO)[C@@H](O)[C@H]1O
C = C#Cc1nc(NOC)c2ncn([C@@H]3O[C@H](CO)[C@@H](O)[C@H]3O)c2n1
D = CCNC(=O)[C@H]1O[C@@H](n2cnc3c(NOC)nc(C#Cc4ccccn4)nc32)[C@H](O)[C@@H]1O
E = CONc1nc(C#Cc2ccccc2)nc2c1ncn2[C@@H]1O[C@@H](CO)[C@@H](O)[C@H]1O
Put the items in sequence by Ratio Ki, from largest down. In your reply, arrange the labels in the requested order.
D, A, E, B, C
